Molecular target: T1, Flag-PTHR1-YFP (UniProt Q03431 27-593); also: unit not given here
T1 sequence (looked up): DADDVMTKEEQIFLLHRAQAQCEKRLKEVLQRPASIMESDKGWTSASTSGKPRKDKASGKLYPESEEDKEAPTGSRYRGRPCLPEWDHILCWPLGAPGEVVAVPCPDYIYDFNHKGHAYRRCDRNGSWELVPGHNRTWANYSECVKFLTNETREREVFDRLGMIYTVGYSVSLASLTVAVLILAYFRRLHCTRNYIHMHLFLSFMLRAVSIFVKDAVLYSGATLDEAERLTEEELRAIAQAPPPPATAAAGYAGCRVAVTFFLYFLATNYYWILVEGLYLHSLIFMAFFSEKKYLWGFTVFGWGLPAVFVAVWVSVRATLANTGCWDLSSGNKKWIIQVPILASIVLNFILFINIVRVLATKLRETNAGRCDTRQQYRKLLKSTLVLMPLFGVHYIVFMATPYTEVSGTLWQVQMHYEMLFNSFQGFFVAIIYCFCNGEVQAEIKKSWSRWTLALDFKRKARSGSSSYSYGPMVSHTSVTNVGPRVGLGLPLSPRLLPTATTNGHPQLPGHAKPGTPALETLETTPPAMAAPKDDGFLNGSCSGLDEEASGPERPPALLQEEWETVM
Assay: cell-based or functional assay
Cut-off 8 on arrestin 2 recruitment (BRET): Emax: below means Condition met, at or above means Condition not met.

*Q* State whether 8 exceeds arrestin 2 recruitment (BRET): Emax recorded for AVAEIQLMHQRAKWSLREELEKLLKELLKEYI [R2-44] .
*A* Condition met

*Q* In the record for GVAMLQIMHDLAKIKQELELKDSMKKILEDVL [R2-50] , is arrestin 2 recruitment (BRET): Emax less than 8?
*A* Condition met

*Q* Strictly below 8 in arrestin 2 recruitment (BRET): Emax? AVAEIQLMHQRAKWELQEIGIKITLDLLEAYL [R2-39]
*A* Condition met

*Q* Here's an entry: AVAEIQLMHQRAKWDVLIELAKLLAELLRRYH [R2-47] . Is its arrestin 2 recruitment (BRET): Emax below 8?
*A* Condition not met

*Q* Say whether its arrestin 2 recruitment (BRET): Emax is strictly beneath 8. Entry: AVAEIQLMHQRAKWSILEELLKILTALLDEYI [R2-46]
*A* Condition not met
